biological target: 11-beta-hydroxysteroid dehydrogenase type 1 (Canis lupus familiaris, UniProt Q5XX84); assay: Inhibition of dog 11beta-HSD1 expressed in CHO cells assessed as conversion of cortisone to cortisol by ELISA
Sequence (Q5XX84 whole entry): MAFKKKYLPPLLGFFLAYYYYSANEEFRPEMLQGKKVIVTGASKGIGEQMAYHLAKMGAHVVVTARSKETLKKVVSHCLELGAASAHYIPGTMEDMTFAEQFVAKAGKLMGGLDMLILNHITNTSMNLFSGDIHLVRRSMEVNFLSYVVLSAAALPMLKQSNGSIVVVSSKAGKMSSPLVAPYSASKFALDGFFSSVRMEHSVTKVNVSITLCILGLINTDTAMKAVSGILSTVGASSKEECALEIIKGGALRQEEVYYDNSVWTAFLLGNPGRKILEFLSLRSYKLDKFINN
quantity_name: pIC50
Just so you know, pIC50 here is -log10 of the concentration in molar units; reply with that number alone.

stdin: Entry under review: "C[C@H](NC1=NC(=O)[C@](C)(C(C)(C)O)S1)c1ccc(F)cc1" . Reported pIC50?
stdout: 7.35

---

experiment: Volume of distribution at steady state in dog at 2 mg/kg, iv and 5 mg/kg, po; format: ADME, organism-based, Canis lupus familiaris; conditions: in vivo, read-out: Vdss
quantity_name: Vd (L/kg)
Note: unit L/kg is implicit; provide only the numeric part.

stdin: Request the reported Vd associated with "C[C@H](NC1=NC(=O)[C@](C)(C(C)(C)O)S1)c1ccc(F)cc1"
stdout: 0.88

---

assay: Oral bioavailability in dog at 5 mg/kg; format: ADME, organism-based, Canis lupus familiaris; details: in vivo
quantity_name: bioavailability (%)
The figure you give is taken to be in %; do not add the unit.

stdin: What does the record list as bioavailability for "C[C@H](NC1=NC(=O)[C@](C)(C(C)(C)O)S1)c1ccc(F)cc1" ?
stdout: 91

---

experiment: Volume of distribution at steady state in mouse at 2 mg/kg, iv and 10 mg/kg, po; type: ADME, organism-based; conditions: in vivo, read-out: Vdss
quantity_name: Vd

stdin: Query: Vd; subject: "C[C@H](NC1=NC(=O)[C@](C)(C(C)(C)O)S1)c1ccc(F)cc1"
stdout: 1.4 L/kg

---

assay: Clearance in mouse at 2 mg/kg, iv and 10 mg/kg, po; format: ADME, organism-based; settings: in vivo
quantity_name: clearance (mL/min/kg)
Quick reminder: number only, in mL/min/kg, skip the unit.

stdin: Which clearance value is on record for "C[C@H](NC1=NC(=O)[C@](C)(C(C)(C)O)S1)c1ccc(F)cc1" ?
stdout: 26.7

---

assay: AUC (0 to infinity) in mouse at 10 mg/kg, po; type: ADME, organism-based; parameters: dose 10 mg/kg, route oral, time infinity; details: plasma
quantity_name: AUC(0-inf) (ng·h/mL)
Respond numerically; units are ng·h/mL and should not be typed.

stdin: Fill in the blank: the reported AUC(0-inf) of "C[C@H](NC1=NC(=O)[C@](C)(C(C)(C)O)S1)c1ccc(F)cc1" is ____.
stdout: 6500

---

target: Nuclear receptor subfamily 1 group I member 2 (Homo sapiens); assay: Transactivation of human PXR transfected in HEK cells at 20 uM by luciferase reporter gene assay relative to 12.5 uM rifampin; assay type: cell-based; settings: hek293, 20 µM
Sequence (O75469 whole entry): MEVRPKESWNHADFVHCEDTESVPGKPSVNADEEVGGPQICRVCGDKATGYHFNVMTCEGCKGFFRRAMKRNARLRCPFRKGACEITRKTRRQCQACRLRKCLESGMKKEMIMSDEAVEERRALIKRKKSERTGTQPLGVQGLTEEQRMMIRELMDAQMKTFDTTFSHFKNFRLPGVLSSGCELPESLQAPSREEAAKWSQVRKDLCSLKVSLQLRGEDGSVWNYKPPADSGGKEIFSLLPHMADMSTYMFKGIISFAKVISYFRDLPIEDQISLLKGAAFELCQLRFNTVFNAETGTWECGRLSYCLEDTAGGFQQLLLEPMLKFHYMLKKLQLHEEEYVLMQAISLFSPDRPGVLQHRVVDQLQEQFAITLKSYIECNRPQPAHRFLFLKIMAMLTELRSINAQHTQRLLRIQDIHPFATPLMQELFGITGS
Label MET when Activity is at or above 30%; otherwise label NOT MET.

Here are 4 molecules together with their reported answers.
>  <molecule>
C[C@H](NC1=NC(=O)C(C)(C2(O)CCCC2)S1)c1ccc(F)cc1 (stereo not given in full)

>  <study_system>
Nuclear receptor subfamily 1 group I member 2 (Homo sapiens)

>  <class_label>
MET

$$$$
>  <molecule>
C[C@H](NC1=NC(=O)[C@@](C)(C(F)(F)F)S1)c1ccccc1F

>  <study_system>
Nuclear receptor subfamily 1 group I member 2 (Homo sapiens)

>  <class_label>
MET

$$$$
>  <molecule>
C[C@H](NC1=NC(=O)C(C)(C(C)(C)O)S1)c1ccccc1Cl (stereo not given in full)

>  <study_system>
Nuclear receptor subfamily 1 group I member 2 (Homo sapiens)

>  <class_label>
MET

$$$$
>  <molecule>
C[C@H](NC1=NC(=O)C(C)(C2(O)CCC2)S1)c1ccc(F)cc1 (stereo not given in full)

>  <study_system>
Nuclear receptor subfamily 1 group I member 2 (Homo sapiens)

>  <class_label>
NOT MET

$$$$

Attention now shifts to the item below.
stdin: Determine whether measured Activity meets or exceeds 30% for C[C@H](NC1=NC(=O)C(C)(c2ccc(C(N)=O)cc2)S1)c1ccc(F)cc1 (stereo not given in full)
stdout: NOT MET
